biological target: Nav 1.7 (Homo sapiens (Human)); test: in-vitro Nav 1.7 PX (IC50); assay type: cell-based; details: in-vitro Nav 1.7 PX data
pIC50: −log10 of the molar value.
// pIC50 lookup, one value per entry
measured.parameter: pIC50

# compound, reading
records = [
    ("COc1nc(OCC2CCCC2)c(Cl)cc1-n1c(=O)ccc2cc(S(=O)(=O)Nc3ccon3)ccc21 [Example 824]", 6.66),
    ("COc1cc(-c2cccc(OC(F)F)c2)ccc1-n1c(=O)ccc2cc(S(=O)(=O)Nc3ccon3)ccc21 [Example 786]", 7.32),
    ("COc1cc(-c2ccc(F)c(F)c2)c(F)cc1-n1c(=O)ccc2cc(S(=O)(=O)Nc3ncco3)ccc21 [Example 936]", 7.39),
    ("COc1cc(-c2ccc(Cl)c(C#N)c2)c(F)cc1-n1c(=O)ccc2cc(S(=O)(=O)Nc3ncccn3)ccc21 [Example 871]", 7.36),
    ("COc1cc(-c2cc(Cl)ccc2C#N)c(F)cc1-n1c(=O)ccc2cc(S(=O)(=O)Nc3ccon3)ccc21 [Example 758]", 7.70),
    ("COc1cc(-c2cccc(C)c2)c(F)cc1-n1c(=O)ccc2cc(S(=O)(=O)Nc3ncco3)ccc21 [Example 1106]", 7.62),
    ("COc1ccc(C)cc1-c1cc(OC)c(-n2c(=O)ccc3cc(S(=O)(=O)Nc4ccon4)ccc32)cc1F [Example 714]", 7.32),
    ("COc1cc(CC2CCCCC2)c(F)cc1-n1c(=O)ccc2cc(S(=O)(=O)Nc3cnccn3)ccc21 [Example 1116]", 7.52),
    ("COc1cc(-c2cccc(C)c2)ccc1-n1c(=O)ccc2cc(S(=O)(=O)Nc3ncccn3)ccc21 [Example 1117]", 7.23),
    ("COc1cc(-c2cccc(C(F)(F)F)c2)ccc1-n1c(=O)ccc2cc(S(=O)(=O)Nc3cc(C)cnn3)ccc21 [Example 1137]", 7.44),
    ("COc1cc(-c2cc(OC)c(-n3c(=O)ccc4cc(S(=O)(=O)Nc5ccon5)ccc43)cc2F)ccn1 [Example 739]", 6.65),
    ("COc1cc(-c2cc(C)ccc2Cl)ccc1-n1c(=O)ccc2cc(S(=O)(=O)Nc3ccon3)ccc21 [Example 1030]", 7.92),
    ("COc1cc(-c2ccc(C)c(Cl)c2)c(F)cc1-n1c(=O)ccc2cc(S(=O)(=O)Nc3ccon3)c(F)cc21 [Example 979]", 7.68),
    ("COc1cc(-c2ccc(Cl)c(C)c2)c(F)cc1-n1c(=O)ccc2cc(S(=O)(=O)Nc3cnsn3)ccc21 [Example 1072]", 7.74),
    ("COc1cc(-c2ccc(F)c(C)c2)c(F)cc1-n1c(=O)ccc2cc(S(=O)(=O)Nc3ncccn3)ccc21 [Example 940]", 7.47),
]

###

// IC50 lookup, one value per entry
target: Nav 1.7 (Homo sapiens (Human)); experiment: in-vitro Nav 1.7 PX (IC50); assay type: cell-based; conditions: in-vitro Nav 1.7 PX data

# compound, readout.units, IC50
rows = [
    ("COc1cc(-c2cccc(C(F)(F)F)c2)ccc1-n1c(=O)ccc2cc(S(=O)(=O)Nc3ncon3)ccc21 [Example 919]", "nM", 22),
    ("COc1cc(-c2cccc(OC(F)(F)F)c2)c(F)cc1-n1c(=O)ccc2cc(S(=O)(=O)Nc3ccon3)ccc21 [Example 728]", "nM", 8),
    ("COc1cc(-c2cccc(C(F)(F)F)c2)ccc1-n1c(=O)ccc2cc(S(=O)(=O)Nc3ccnc(C)n3)ccc21 [Example 947]", "nM", 51),
    ("COc1cc(-c2cnc(OC)c(Cl)c2)c(F)cc1-n1c(=O)ccc2cc(S(=O)(=O)Nc3ccon3)ccc21 [Example 740]", "nM", 9),
    ("COc1cc(-c2cccc(C)c2)c(F)cc1-n1c(=O)ccc2cc(S(=O)(=O)Nc3cccnn3)ccc21 [Example 1108]", "nM", 21),
    ("COc1ccc(-c2ccc(Cl)c(C)c2)cc1-n1c(=O)ccc2cc(S(=O)(=O)Nc3ccon3)ccc21 [Example 846]", "nM", 25),
    ("COc1cc(-c2ccc(F)c(F)c2)c(C)cc1-n1c(=O)ccc2cc(S(=O)(=O)Nc3ncccn3)ccc21 [Example 958]", "nM", 28),
    ("COc1cc(Cl)cc(-c2cc(OC)c(-n3c(=O)ccc4cc(S(=O)(=O)Nc5ncco5)ccc43)cc2F)c1 [Example 926]", "nM", 6),
    ("COc1ccc(-c2cccc(F)c2F)cc1-n1c(=O)ccc2cc(S(=O)(=O)Nc3ccon3)ccc21 [Example 848]", "nM", 118),
    ("COc1cc(-c2cccc(Cl)c2C)ccc1-n1c(=O)ccc2cc(S(=O)(=O)Nc3ccon3)ccc21 [Example 1028]", "nM", 18),
    ("COc1cc(-c2ccc(Cl)cc2)ccc1-n1c(=O)ccc2cc(S(=O)(=O)Nc3ccnc(C)n3)ccc21 [Example 768]", "nM", 52),
    ("COc1cc(-c2cccc(C)c2F)c(F)cc1-n1c(=O)ccc2cc(S(=O)(=O)Nc3ccon3)ccc21 [Example 719]", "nM", 49),
    ("COc1cc(Br)c(F)cc1-n1c(=O)ccc2cc(S(=O)(=O)Nc3ccon3)ccc21 [Example 1105]", "nM", 307),
    ("COc1cc(C[C@H]2CCCOC2)c(F)cc1-n1c(=O)ccc2cc(S(=O)(=O)Nc3ccon3)ccc21 [Example 1118]", "nM", 1480),
    ("COc1ccc(-c2cc(F)cc(Cl)c2)cc1-n1c(=O)ccc2cc(S(=O)(=O)Nc3ccncn3)ccc21 [Example 610]", "nM", 13),
]

###

// pIC50 lookup, one value per entry
biological target: Nav 1.7 (Homo sapiens (Human), UniProt Q15858); assay: in-vitro Nav 1.7 PX (IC50); assay type: cell-based
Sequence (Q15858 whole entry): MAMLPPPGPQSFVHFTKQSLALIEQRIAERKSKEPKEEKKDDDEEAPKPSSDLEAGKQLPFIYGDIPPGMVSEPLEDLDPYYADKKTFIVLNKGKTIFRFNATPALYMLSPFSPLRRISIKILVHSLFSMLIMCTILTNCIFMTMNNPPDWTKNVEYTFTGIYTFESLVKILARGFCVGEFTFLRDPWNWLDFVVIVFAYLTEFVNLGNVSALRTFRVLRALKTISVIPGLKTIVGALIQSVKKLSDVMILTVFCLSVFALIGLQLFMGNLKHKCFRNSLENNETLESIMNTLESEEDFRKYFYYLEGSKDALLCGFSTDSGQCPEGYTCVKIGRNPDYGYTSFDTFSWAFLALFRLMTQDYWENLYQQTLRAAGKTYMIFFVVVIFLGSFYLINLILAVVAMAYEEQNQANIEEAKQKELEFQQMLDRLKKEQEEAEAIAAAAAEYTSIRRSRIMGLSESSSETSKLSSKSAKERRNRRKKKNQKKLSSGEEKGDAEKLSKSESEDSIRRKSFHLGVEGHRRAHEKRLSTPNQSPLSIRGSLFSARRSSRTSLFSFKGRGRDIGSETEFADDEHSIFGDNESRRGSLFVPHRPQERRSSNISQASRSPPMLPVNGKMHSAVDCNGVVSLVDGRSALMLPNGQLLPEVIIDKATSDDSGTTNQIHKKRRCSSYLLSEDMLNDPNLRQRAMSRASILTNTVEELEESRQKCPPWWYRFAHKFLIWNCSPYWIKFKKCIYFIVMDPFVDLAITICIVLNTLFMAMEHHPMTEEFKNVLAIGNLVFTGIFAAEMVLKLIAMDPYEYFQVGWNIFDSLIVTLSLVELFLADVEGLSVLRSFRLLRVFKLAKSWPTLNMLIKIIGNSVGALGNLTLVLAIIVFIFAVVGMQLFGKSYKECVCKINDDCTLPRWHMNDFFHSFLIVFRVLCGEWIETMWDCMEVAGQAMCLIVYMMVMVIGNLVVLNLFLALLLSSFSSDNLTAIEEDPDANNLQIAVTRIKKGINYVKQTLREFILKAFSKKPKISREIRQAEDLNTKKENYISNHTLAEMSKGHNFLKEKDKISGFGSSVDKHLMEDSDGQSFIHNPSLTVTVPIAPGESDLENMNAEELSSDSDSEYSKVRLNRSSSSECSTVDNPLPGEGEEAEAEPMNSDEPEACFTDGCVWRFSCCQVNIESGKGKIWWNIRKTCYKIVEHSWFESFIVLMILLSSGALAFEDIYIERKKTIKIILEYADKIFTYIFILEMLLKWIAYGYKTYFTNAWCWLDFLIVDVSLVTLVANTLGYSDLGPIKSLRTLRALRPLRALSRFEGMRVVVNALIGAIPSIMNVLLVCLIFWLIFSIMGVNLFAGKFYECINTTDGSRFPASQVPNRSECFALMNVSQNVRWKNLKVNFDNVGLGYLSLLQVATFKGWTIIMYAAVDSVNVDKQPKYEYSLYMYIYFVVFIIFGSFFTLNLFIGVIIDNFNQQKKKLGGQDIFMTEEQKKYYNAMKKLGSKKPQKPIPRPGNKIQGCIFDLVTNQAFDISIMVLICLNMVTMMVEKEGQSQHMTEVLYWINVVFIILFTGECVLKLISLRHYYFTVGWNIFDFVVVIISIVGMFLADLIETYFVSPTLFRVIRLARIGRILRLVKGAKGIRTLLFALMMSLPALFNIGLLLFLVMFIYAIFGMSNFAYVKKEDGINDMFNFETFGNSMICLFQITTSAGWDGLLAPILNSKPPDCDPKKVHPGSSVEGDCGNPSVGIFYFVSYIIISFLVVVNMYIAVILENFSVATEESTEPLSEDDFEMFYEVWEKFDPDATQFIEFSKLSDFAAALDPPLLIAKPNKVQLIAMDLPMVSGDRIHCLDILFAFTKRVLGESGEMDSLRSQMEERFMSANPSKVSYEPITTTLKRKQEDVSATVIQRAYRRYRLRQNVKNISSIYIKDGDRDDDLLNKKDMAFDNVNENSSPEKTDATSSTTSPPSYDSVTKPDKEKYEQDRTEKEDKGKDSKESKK
pIC50: −log10 of the molar value.

# compound, lt.gt.eq, pIC50
measured = [
    ("COc1cc(-c2ccc(F)cc2)c(F)cc1-n1c(=O)cnc2cc(S(=O)(=O)Nc3ccon3)ccc21", "=", 6.97),
    ("COc1cc(-c2cc(F)cc(Cl)c2)c(F)cc1-n1c(=O)ccc2cc(S(=O)(=O)Nc3ncon3)ccc21 (atropisomer, axis not shown; (P))", "=", 8.30),
    ("COc1ccc(-c2cncc(Cl)c2)cc1-n1c(=O)ccc2cc(S(=O)(=O)Nc3ccon3)ccc21", "=", 6.17),
    ("COc1cc(-c2ccc(F)c(F)c2)c(F)cc1-n1c(=O)cnc2cc(S(=O)(=O)Nc3cccnn3)ccc21", "=", 6.58),
    ("COc1cc(-c2ccc(Cl)c(C)c2)c(Cl)cc1-n1c(=O)ccc2cc(S(=O)(=O)Nc3ccon3)ccc21 (atropisomer, axis not shown; (M)) [Example 472]", "=", 6.10),
    ("COc1nc(Oc2cc(F)ccc2F)c(Cl)cc1-n1c(=O)ccc2cc(S(=O)(=O)Nc3ccon3)ccc21", "=", 6.07),
    ("COc1cc(-c2cccc(F)c2)c(Cl)cc1-n1c(=O)cc(C)c2cc(S(=O)(=O)Nc3ccon3)ccc21 [Example 349]", "=", 4.98),
    ("COc1ccc(-c2cccc(C(F)(F)F)c2)cc1-n1c(=O)ccc2cc(S(=O)(=O)Nc3ccon3)ccc21 (atropisomer, axis not shown; (M)) [Example 382]", "=", 5.51),
    ("COc1cc(-c2cc(F)cc(Cl)c2)c(C#N)cc1-n1c(=O)ccc2cc(S(=O)(=O)Nc3ccon3)ccc21 (atropisomer, axis not shown; (P)) [Example 433]", "=", 8.00),
    ("COc1cc(-c2cccc(C)c2)ccc1-n1c(=O)ccc2cc(S(=O)(=O)Nc3ccon3)ccc21 (atropisomer, axis not shown; (M)) [Example 583]", "<", 5.00),
    ("COc1cc(-c2ccc(Cl)c(C)c2)c(F)cc1-n1c(=O)c(OC)cc2cc(S(=O)(=O)Nc3ccon3)ccc21 (atropisomer, axis not shown; (P)) [Example 414]", "=", 7.89),
    ("COc1cc(-c2cccc(Cl)c2)c(C)cc1-n1c(=O)ccc2cc(S(=O)(=O)Nc3ncccn3)ccc21 (atropisomer, axis not shown; (M)) [Example 322]", "=", 5.41),
    ("COc1ccc(-c2cccc(C(F)(F)F)c2)cc1-n1c(=O)ccc2cc(S(=O)(=O)Nc3ccon3)ccc21 [Example 312]", "=", 7.66),
]

###

molecular target: Nav 1.7 (Homo sapiens (Human)); experiment: in-vitro Nav 1.7 PX (IC50); assay type: cell-based; conditions: in-vitro Nav 1.7 PX data
measured.parameter: IC50 (nM)

# compound, measured.parameter, reading
rows = [
    ("COc1cc(-c2cccc(OC(F)(F)F)c2)ccc1-n1c(=O)ccc2cc(S(=O)(=O)Nc3ccon3)ccc21", "IC50", 10),
    ("COc1cc(-c2ccc(Cl)c(C#N)c2)c(F)cc1-n1c(=O)ccc2cc(S(=O)(=O)Nc3ncco3)ccc21", "IC50", 84),
    ("COc1cc(-c2ccc(-n3c(=O)ccc4cc(S(=O)(=O)Nc5ccon5)ccc43)c(OC)c2)ccc1C (atropisomer, axis not shown; (P))", "IC50", 15),
]
